# study_target: Beta-1 adrenergic receptor (Homo sapiens)
# test_protocol: Intrinsic activity (IA) at human Beta-1 adrenergic receptor (at 30 uM, represented by the percentage of the maximal response attained by isoproterenol)
# Type: functional
Please provide measured IA for the entries that follow.
Respond numerically, and do not add a unit to the figure.

[ask] Any idea what its IA is? The molecule is O=S(=O)(Nc1ccc(CCNC[C@H](O)c2cccnc2)cc1)c1ccc(-c2nc(-c3ccc(C(F)(F)F)cc3)cs2)cc1
[reply] 1

[ask] Quick check: IA of CN(C)S(=O)(=O)Nc1ccc(CC(C)(C)NC[C@H](O)c2cccnc2)cc1 ?
[reply] 10

[ask] Given the entry CN1CCN(S(=O)(=O)Nc2ccc(CC(C)(C)NC[C@H](O)c3cccnc3)cc2)CC1 , report its measured IA.
[reply] 7

[ask] Item O=S(=O)(Nc1ccc(CCNC[C@H](O)c2cccnc2)cc1)N1CCCCC1 has what recorded IA?
[reply] 7

[ask] What does the data say about its IA? Entry: O=S(=O)(Nc1ccc(CCNC[C@H](O)c2cccnc2)cc1)N1CCC(c2ccccc2)CC1
[reply] 2

[ask] Recorded IA of CN(C)S(=O)(=O)N(C)c1ccc(CCNC[C@H](O)c2cccc(Cl)c2)cc1 , please.
[reply] 2

[ask] Look up IA: CC1CCN(S(=O)(=O)Nc2ccc(OCCNC[C@H](O)c3cccnc3)cc2)CC1
[reply] 5

[ask] Which value of IA has been reported for C[C@@H]1C[C@H](C)CN(S(=O)(=O)Nc2ccc(CCNC[C@H](O)c3cccnc3)cc2)C1 in the records?
[reply] 11

[ask] What value of measured IA is listed for O=S(=O)(Nc1ccc(CCNC[C@H](O)c2cccc(Cl)c2)cc1)N1CCCCC1 ?
[reply] 4

[ask] If you can, please state the reported IA value of O=S(=O)(Nc1ccc(CCNC[C@H](O)c2cccnc2)cc1)NC1CCCCC1 .
[reply] 0

[ask] Name the reported IA value associated with the molecule CN(C)S(=O)(=O)Nc1ccc(CCNC[C@H](O)c2cccc(Cl)c2)cc1
[reply] 5

[ask] Look at this molecule and give its reported IA. C[C@@H]1C[C@H](C)CN(S(=O)(=O)Nc2ccc(CC(C)(C)NC[C@H](O)c3cccnc3)cc2)C1
[reply] 7

[ask] What value of IA has been recorded for this entry: CN(C1CCCCC1)S(=O)(=O)Nc1ccc(CCNC[C@H](O)c2cccc(Cl)c2)cc1
[reply] 6

[ask] Item CC(C)(Cc1ccc(NS(=O)(=O)NC2CCCCC2)cc1)NC[C@H](O)c1cccnc1 has what recorded IA?
[reply] 17

[ask] Tell me the measured IA of CC(C)(Cc1ccc(NS(=O)(=O)Nc2ccccc2)cc1)NC[C@H](O)c1cccnc1 , please.
[reply] 29

[ask] # get_value(readout='IA', item= CC1CCN(S(=O)(=O)Nc2ccc(CC(C)(C)NC[C@H](O)c3cccnc3)cc2)CC1 )
[reply] 12

[ask] State the recorded IA for this entry: COCCNS(=O)(=O)Nc1ccc(CC(C)(C)NC[C@H](O)c2cccnc2)cc1
[reply] 28

[ask] Which measured IA value corresponds to CN(C1CCCCC1)S(=O)(=O)Nc1ccc(CCNC[C@H](O)c2cccnc2)cc1 ?
[reply] 15

[ask] Entry CC(C)(Cc1ccc(NS(=O)(=O)N2CCC(c3ccccc3)CC2)cc1)NC[C@H](O)c1cccnc1 has what IA?
[reply] 20

[ask] IA for CN(C)S(=O)(=O)Nc1ccc(CCNC[C@H](O)c2cccnc2)cc1 ?
[reply] 6

[ask] Bench note: what IA did CC(C)(Cc1ccc(NS(=O)(=O)N2CCN(Cc3ccccc3)CC2)cc1)NC[C@H](O)c1cccnc1 show?
[reply] 46

[ask] I am curious: what IA value has been reported for CN(C)S(=O)(=O)Nc1ccc(OCCNC[C@H](O)c2cccnc2)cc1 ?
[reply] 3

[ask] Could you tell me which IA is on file for CC1CCN(S(=O)(=O)Nc2ccc(CCNC[C@H](O)c3cccnc3)cc2)CC1 ?
[reply] 6

[ask] Look up IA: C[C@@H]1CN(S(=O)(=O)Nc2ccc(CC(C)(C)NC[C@H](O)c3cccnc3)cc2)C[C@H](C)O1
[reply] 10
